target: THN (Therminator); assay: Polymerase end point (PEP) assay; settings: read-out: Average IC50 ± SD
Property name: IC50 (nM)
Quick note: give the figure in nM, leave out the unit.

The observed IC50 for Nc1ncnc2c1ncn2[C@H]1C[C@H](O)[C@@H](COP(=O)(O)OP(=O)(O)OP(=O)(O)O)O1 when tested with THN (Therminator) stands at 0.526
